Assign pEC50 to each entry below.
target: GST tagged LXRbeta LBD (ligand binding domain) (Homo sapiens); assay: LanthaScreen TR-FRET Liver X Receptor Coactivator Assay, LXR beta-LBD (co-activator recruitment; IP and % Emax relative to T0901317); details: Inflection Point of co-activator recruitment, LXR beta-LBD, TR-FRET
Sequence (P55055 222-460 limits assumed): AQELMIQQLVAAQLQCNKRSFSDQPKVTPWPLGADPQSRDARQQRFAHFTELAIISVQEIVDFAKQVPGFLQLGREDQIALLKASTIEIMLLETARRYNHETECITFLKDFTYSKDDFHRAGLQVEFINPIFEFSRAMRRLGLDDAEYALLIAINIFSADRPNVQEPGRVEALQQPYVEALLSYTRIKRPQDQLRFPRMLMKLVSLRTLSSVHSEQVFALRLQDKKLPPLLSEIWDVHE
To interpret pEC50, take it as minus log10 of a concentration measured in moles per litre.

q: Need pEC50, item COc1cccc([C@@](O)(C(=O)NCCCC2CCN(c3ccc(C(=O)N(C)C)c(Cl)n3)CC2)C(F)(F)F)c1 [Example 5-23]
a: 6.56

q: Please give the result for CN(C)C(=O)c1ccc(N2CCC3(CC2)CC3CCCN(C)C(=O)C(C)(C)c2ccccc2)cc1Cl (stereo not shown) [Example 7-34] too.
a: 6.58

q: Please give the result for CN(C)C(=O)c1ccc(N2CCC(CCCNC(=O)[C@]3(c4ccccc4)CCCO3)CC2)nc1Cl [Example 5-19] too.
a: 6.80

q: Please give the result for COc1cccc([C@]2(C(=O)N(C)CCCC3CCN(c4ccc(C(=O)N(C)C)c(Cl)n4)CC3)CCCO2)c1 [Example 1-46] too.
a: 6.39

Sourced from patent US10961215B2
